- Measured Target: human PD-1 / PD-L1-Ig binding on Jurkat cell line over-expressing human PD-1 (Jurkat-PD-1) (Homo sapiens)
- Construct: expressed in transfected cells; host or cells: Jurkat
- Protocol Notes: Jurkat-PD-1 Cell Binding High-Content Screening Assay (CBA)
- Type: cell-based
- Stated Conditions: Jurkat-PD-1 cells, PE-labeled PD-L1-Ig 20 nM final; read-out: Jurkat HPD1_PDL1 IC50
- Protocol: Example 3. Jurkat-PD-1 Cell Binding High-Content Screening Assay (CBA) Jurkat-PD-1 Cell Binding High-Content Screening Assay (CBA). Phycoerythrin (PE) was covalently linked to the Ig epitope tag of human PD-L1-Ig and fluorescently-labeled PD-L1-Ig was used for binding studies with a Jurkat cell line over-expressing human PD-1 (Jurkat-PD-1). Briefly, 8×10^3 Jurkat-hPD-1 cells were seeded into 384 well plates in 20 μl of DMEM supplemented with 10% fetal calf serum. […]
Where a SMILES comes first, the peptide text is derived from it. Bridges are numbered along the chain shown (N, C = ends). [ ]: non-standard residue; d: D form. Bip = N[C@@H](Cc1ccc(-c2ccccc2)cc1)C(=O)O; Orn = NCCC[C@H](N)C(=O)O; Dab = NCC[C@H](N)C(=O)O
Assay Metric: IC50 (nM)
Field: numeric (nM). Do not append units.

Would you mind telling me what IC50 value was observed for CC(C)C[C@@H]1NC(=O)[C@H](Cc2c[nH]c3ccccc23)NC(=O)[C@H](CC(=O)O)NC(=O)[C@H](Cc2ccc(O)cc2)NC(=O)[C@H](Cc2ccccc2)NC(=O)CSC[C@@H](C(=O)N[C@@H](C)C(N)=O)NC(=O)[C@H](CO)NC(=O)[C@H](C(C)C)NC(=O)[C@H](CC(C)C)NC(=O)[C@H](CCN)NC(=O)[C@@H](CC(C)C)NC(=O)[C@H](CCCN)NC(=O)[C@H](C(C)C)NC(=O)[C@H](Cc2ccc(-c3ccccc3)cc2)NC1=O [Compound 1069] ({CH2CO}-FYDWL[Bip]V[Orn][dL][Dab]LVSCA-NH2; thioether N-14) ? 13.9

====

- Measured Target: human PD-1 / PD-L1-Ig binding on Jurkat cell line over-expressing human PD-1 (Jurkat-PD-1) (Homo sapiens, UniProt Q15116)
- Construct: expressed in transfected cells; host or cells: Jurkat
- Sequence (Q15116 25-288): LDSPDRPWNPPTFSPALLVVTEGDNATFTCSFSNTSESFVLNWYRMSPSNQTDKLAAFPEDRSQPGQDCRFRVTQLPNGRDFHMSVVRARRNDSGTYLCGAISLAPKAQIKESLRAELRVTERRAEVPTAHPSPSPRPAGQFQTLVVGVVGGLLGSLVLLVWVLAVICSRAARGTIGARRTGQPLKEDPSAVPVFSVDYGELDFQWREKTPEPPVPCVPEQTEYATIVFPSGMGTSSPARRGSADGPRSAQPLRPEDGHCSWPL
- Protocol Notes: Jurkat-PD-1 Cell Binding High-Content Screening Assay (CBA)
- Assay type: cell-based
- Stated Conditions: Jurkat-PD-1 cells, PE-labeled PD-L1-Ig 20 nM final; read-out: Jurkat HPD1_PDL1 IC50
Where a SMILES comes first, the peptide text is derived from it. Bridges are numbered along the chain shown (N, C = ends). [ ]: non-standard residue; d: D form. Bip = N[C@@H](Cc1ccc(-c2ccccc2)cc1)C(=O)O; Orn = NCCC[C@H](N)C(=O)O
Assay Metric: IC50 (µM)
Field: numeric (µM). Do not append units.

INSERT INTO assay_data (compound, assay_value) VALUES
  ('CC(C)C[C@@H]1NC(=O)[C@H](CCCNC(=N)N)NC(=O)[C@@H](CC(C)C)NC(=O)[C@H](CCCN)NC(=O)[C@H](CCCNC(=N)N)NC(=O)[C@H](Cc2ccc(-c3ccccc3)cc2)NC(=O)[C@H](C(C)C)NC(=O)[C@H](Cc2c[nH]c3ccccc23)NC(=O)[C@H](CC(=O)O)NC(=O)[C@H](Cc2ccc(O)cc2)NC(=O)[C@H](CC(N)=O)NC(=O)CSC[C@@H](C(=O)N[C@@H](C)C(N)=O)NC(=O)[C@H]([C@@H](C)O)NC(=O)[C@H](C(C)C)NC1=O [Compound 1012] ({CH2CO}-NYDWV[Bip]R[Orn][dL]RLVTCA-NH2; thioether N-14)', 0.0436);

Would you mind telling me what IC50 value was observed for `CC(C)C[C@H]1NC(=O)[C@H](CCCN)NC(=O)[C@H](CCC(=O)O)NC(=O)[C@H](Cc2ccc(-c3ccccc3)cc2)NC(=O)[C@H](C(C)C)NC(=O)[C@H](Cc2c[nH]c3ccccc23)NC(=O)[C@H](CC(=O)O)NC(=O)[C@H](Cc2ccc(-c3ccc(C(=O)O)cc3)cc2)NC(=O)[C@H](Cc2ccc(OCC(=O)O)cc2)NC(=O)CSC[C@@H](C(=O)N[C@@H](C)C(N)=O)NC(=O)[C@H]([C@@H](C)O)NC(=O)[C@H](C(C)C)NC(=O)[C@H](CC2CCCCC2)NC(=O)[C@H](CCN)NC1=O` ? 0.0196
